From: ChEMBL document CHEMBL1148262

Assay: Half-life of compound at a pH of 1.4 was determined
Assay type: ADME
Details: pH 1.4
So I've got a bunch of compounds here, and I need their half-life values.

// query // returns reported half-life for input CC(=O)Nc1cc(CO[C@@H]2O[C@@H](COC(=O)c3ccccc3)[C@H](O[C@H]3OC4CO[C@@H](c5ccc(Cl)cc5)OC4[C@H](O)[C@@H]3O)[C@H](O)[C@@H]2O)ccc1Cl (some centres not stated)
// result 4 h

// query Give the measured half-life of CC(=O)Nc1cc(CO[C@@H]2O[C@@H](COC(=O)c3ccccc3)[C@H](O[C@H]3OC4CO[C@@H](c5ccccc5)OC4[C@H](O)[C@@H]3O)[C@H](O)[C@@H]2O)ccc1Cl (some centres not stated) .
// result 2.3 h

// query Suppose we examine the compound CC(=O)Nc1cc(CO[C@@H]2O[C@@H](COC(=O)c3ccccc3)[C@H](O[C@H]3OC4CO[C@@H](c5ccncc5)OC4[C@H](O)[C@@H]3O)[C@H](O)[C@@H]2O)ccc1Cl (some centres not stated) ; what half-life value has been reported?
// result > 20 h

// query Look at this compound and give its reported half-life. CC(=O)Nc1cc(CO[C@@H]2O[C@@H](COC(=O)c3ccccc3)[C@H](O[C@H]3OC4CO[C@@H](Cc5ccccc5)OC4[C@H](O)[C@@H]3O)[C@H](O)[C@@H]2O)ccc1Cl (some centres not stated)
// result > 20 h

// query # get_value(readout='half-life', item= CC(=O)Nc1cc(CO[C@@H]2O[C@@H](COC(=O)c3ccccc3)[C@H](O[C@H]3OC4CO[C@@H](C)OC4[C@H](O)[C@@H]3O)[C@H](O)[C@@H]2O)ccc1Cl (some centres not stated) )
// result > 20 h

// query Consider the compound CC[C@@H]1OCC2O[C@H](O[C@@H]3[C@H](O)[C@H](O)[C@H](OCc4ccc(Cl)c(NC(C)=O)c4)O[C@H]3COC(=O)c3ccccc3)[C@@H](O)[C@@H](O)C2O1 (some centres not stated) and give its measured half-life.
// result > 20 h

// query Look at this compound and give its reported half-life. CC(=O)Nc1cc(CO[C@@H]2O[C@@H](COC(=O)c3ccccc3)[C@H](O[C@H]3OC4CO[C@@H](C(C)C)OC4[C@H](O)[C@@H]3O)[C@H](O)[C@@H]2O)ccc1Cl (some centres not stated)
// result > 20 h

----------
Assay: Percent degradation of compound at a pH of 1 over a 18 hr period
Format: ADME
Conditions: pH 1; read-out: Degradation
Quantity: degraded at 18 h (%)
All answers are understood in %, so give the number only.

// query Which degraded at 18 h value belongs to CC(=O)Nc1cc(CO[C@@H]2O[C@@H](COC(=O)c3ccccc3)[C@H](O[C@H]3OC4CO[C@@H](C)OC4[C@H](O)[C@@H]3O)[C@H](O)[C@@H]2O)ccc1Cl (some centres not stated) ?
// result 32

// query Which degraded at 18 h reading was recorded for the compound CC(=O)Nc1cc(CO[C@@H]2O[C@@H](COC(=O)c3ccccc3)[C@H](O[C@H]3OC4CO[C@@H](c5ccccc5)OC4[C@H](O)[C@@H]3O)[C@H](O)[C@@H]2O)ccc1Cl (some centres not stated) ?
// result 100

----------
Hi there, I'd appreciate the recorded half-life for every entry that follows.
Experiment: Half-life of compound at a pH of 1 was determined
Type: ADME
Settings: pH 1

// query I am curious: what half-life value has been reported for CC[C@@H]1OCC2O[C@H](O[C@@H]3[C@H](O)[C@H](O)[C@H](OCc4ccc(Cl)c(NC(C)=O)c4)O[C@H]3COC(=O)c3ccccc3)[C@@H](O)[C@@H](O)C2O1 (some centres not stated) ?
// result > 20 h

// query # input molecule: CC(=O)Nc1cc(CO[C@@H]2O[C@@H](COC(=O)c3ccccc3)[C@H](O[C@H]3OC4CO[C@@H](Cc5ccccc5)OC4[C@H](O)[C@@H]3O)[C@H](O)[C@@H]2O)ccc1Cl (some centres not stated) ; wanted: its half-life
// result > 20 h

// query Which half-life is reported for this molecule? CC(=O)Nc1cc(CO[C@@H]2O[C@@H](COC(=O)c3ccccc3)[C@H](O[C@H]3OC4CO[C@@H](c5ccc(Cl)cc5)OC4[C@H](O)[C@@H]3O)[C@H](O)[C@@H]2O)ccc1Cl (some centres not stated)
// result 1.7 h

// query What value of half-life has been recorded for this entry: CC(=O)Nc1cc(CO[C@@H]2O[C@@H](COC(=O)c3ccccc3)[C@H](O[C@H]3OC4CO[C@@H](C(C)C)OC4[C@H](O)[C@@H]3O)[C@H](O)[C@@H]2O)ccc1Cl (some centres not stated)
// result > 20 h

// query Please give the measured half-life for this molecule: CC(=O)Nc1cc(CO[C@@H]2O[C@@H](COC(=O)c3ccccc3)[C@H](O[C@H]3OC4CO[C@@H](c5ccncc5)OC4[C@H](O)[C@@H]3O)[C@H](O)[C@@H]2O)ccc1Cl (some centres not stated)
// result > 20 h

// query Param item = CC(=O)Nc1cc(CO[C@@H]2O[C@@H](COC(=O)c3ccccc3)[C@H](O[C@H]3OC4CO[C@@H](c5ccccc5)OC4[C@H](O)[C@@H]3O)[C@H](O)[C@@H]2O)ccc1Cl (some centres not stated) ; retrieve measured half-life.
// result 1.9 h

// query # get_value(readout='half-life', item= CC(=O)Nc1cc(CO[C@@H]2O[C@@H](COC(=O)c3ccccc3)[C@H](O[C@H]3OC4CO[C@@H](C)OC4[C@H](O)[C@@H]3O)[C@H](O)[C@@H]2O)ccc1Cl (some centres not stated) )
// result > 20 h

----------
Test: Half-life of compound at a pH of 1.9 was determined
Format: ADME
Conditions: pH 1.9
Consider the following molecules; for each one, report its half-life.

// query Query (molecule): CC(=O)Nc1cc(CO[C@@H]2O[C@@H](COC(=O)c3ccccc3)[C@H](O[C@H]3OC4CO[C@@H](C)OC4[C@H](O)[C@@H]3O)[C@H](O)[C@@H]2O)ccc1Cl (some centres not stated) ; field requested: half-life
// result > 20 h

// query So what does the record say about half-life for CC(=O)Nc1cc(CO[C@@H]2O[C@@H](COC(=O)c3ccccc3)[C@H](O[C@H]3OC4CO[C@@H](Cc5ccccc5)OC4[C@H](O)[C@@H]3O)[C@H](O)[C@@H]2O)ccc1Cl (some centres not stated) ?
// result > 20 h

// query Fill in: half-life of CC(=O)Nc1cc(CO[C@@H]2O[C@@H](COC(=O)c3ccccc3)[C@H](O[C@H]3OC4CO[C@@H](C(C)C)OC4[C@H](O)[C@@H]3O)[C@H](O)[C@@H]2O)ccc1Cl (some centres not stated) is ___
// result > 20 h

// query Which half-life is listed for CC(=O)Nc1cc(CO[C@@H]2O[C@@H](COC(=O)c3ccccc3)[C@H](O[C@H]3OC4CO[C@@H](c5ccc(Cl)cc5)OC4[C@H](O)[C@@H]3O)[C@H](O)[C@@H]2O)ccc1Cl (some centres not stated) ?
// result 13.3 h

// query Give its half-life value. Item: CC(=O)Nc1cc(CO[C@@H]2O[C@@H](COC(=O)c3ccccc3)[C@H](O[C@H]3OC4CO[C@@H](c5ccncc5)OC4[C@H](O)[C@@H]3O)[C@H](O)[C@@H]2O)ccc1Cl (some centres not stated)
// result > 20 h

// query Which measured half-life value corresponds to CC[C@@H]1OCC2O[C@H](O[C@@H]3[C@H](O)[C@H](O)[C@H](OCc4ccc(Cl)c(NC(C)=O)c4)O[C@H]3COC(=O)c3ccccc3)[C@@H](O)[C@@H](O)C2O1 (some centres not stated) ?
// result > 20 h

// query Quick check: half-life of CC(=O)Nc1cc(CO[C@@H]2O[C@@H](COC(=O)c3ccccc3)[C@H](O[C@H]3OC4CO[C@@H](c5ccccc5)OC4[C@H](O)[C@@H]3O)[C@H](O)[C@@H]2O)ccc1Cl (some centres not stated) ?
// result 4.2 h

----------
Assay: Stability of compound determined in medium mimicking stomach as percent remaining at 18-20 hr at a pH of 1
Assay type: ADME
Conditions: pH 1
Values of Remaining greater than or equal to 70% map to met; values below map to not met.

// query Decide: is the reported value of Remaining for CC(=O)Nc1cc(CO[C@@H]2O[C@@H](COC(=O)c3ccccc3)[C@H](O[C@H]3OC4CO[C@@H](C(C)C)OC4[C@H](O)[C@@H]3O)[C@H](O)[C@@H]2O)ccc1Cl (some centres not stated) equal to or greater than 70%?
// result not met

// query Entry CC[C@@H]1OCC2O[C@H](O[C@@H]3[C@H](O)[C@H](O)[C@H](OCc4ccc(Cl)c(NC(C)=O)c4)O[C@H]3COC(=O)c3ccccc3)[C@@H](O)[C@@H](O)C2O1 (some centres not stated) : is its Remaining no less than 70%?
// result not met

// query In plain terms: is recorded Remaining at least 70% for CC(=O)Nc1cc(CO[C@@H]2O[C@@H](COC(=O)c3ccccc3)[C@H](O[C@H]3OC4CO[C@@H](c5ccncc5)OC4[C@H](O)[C@@H]3O)[C@H](O)[C@@H]2O)ccc1Cl (some centres not stated) ?
// result met

// query Given CC(=O)Nc1cc(CO[C@@H]2O[C@@H](COC(=O)c3ccccc3)[C@H](O[C@H]3OC4CO[C@@H](c5ccccc5)OC4[C@H](O)[C@@H]3O)[C@H](O)[C@@H]2O)ccc1Cl (some centres not stated) , state whether its Remaining is at least 70%.
// result not met

// query Identify whether the reported Remaining of the following molecule is 70% or greater: CC(=O)Nc1cc(CO[C@@H]2O[C@@H](COC(=O)c3ccccc3)[C@H](O[C@H]3OC4CO[C@@H](Cc5ccccc5)OC4[C@H](O)[C@@H]3O)[C@H](O)[C@@H]2O)ccc1Cl (some centres not stated)
// result met

// query hey, is Remaining for this one >= 70%? CC(=O)Nc1cc(CO[C@@H]2O[C@@H](COC(=O)c3ccccc3)[C@H](O[C@H]3OC4CO[C@@H](c5ccc(Cl)cc5)OC4[C@H](O)[C@@H]3O)[C@H](O)[C@@H]2O)ccc1Cl (some centres not stated)
// result not met
